system: MCF-10A; assay: Cytotoxicity against human MCF10A cells at 1 uM by MTT assay; assay type: cell-based

>  <molecule>
CC(O)(CSc1ccc(F)cc1)c1nc(-c2ccc([N+](=O)[O-])c(C(F)(F)F)c2)no1 (stereo unspecified)

>  <Activity>
11.35%

$$$$
>  <molecule>
CC(O)(CSc1ccc(Br)cc1)c1nc(-c2ccc([N+](=O)[O-])c(C(F)(F)F)c2)no1 (stereo unspecified)

>  <Activity>
10.55%

$$$$
>  <molecule>
CC(O)(CSc1ccccc1)c1nc(-c2ccc([N+](=O)[O-])c(C(F)(F)F)c2)no1 (stereo unspecified)

>  <Activity>
12.62%

$$$$
>  <molecule>
CC(O)(CSc1ccc(Cl)cc1)c1nc(-c2ccc([N+](=O)[O-])c(C(F)(F)F)c2)no1 (stereo unspecified)

>  <Activity>
10.35%

$$$$
>  <molecule>
CC(O)(CSc1ccc(Cl)cc1)c1nc(-c2ccc(F)c(Cl)c2)no1 (stereo unspecified)

>  <Activity>
10.62%

$$$$
>  <molecule>
CC(O)(CSc1ccc(F)cc1)c1nc(-c2ccc(F)c(Cl)c2)no1 (stereo unspecified)

>  <Activity>
12.44%

$$$$
